# assay protocol: molar heat capacity at constant pressure
# assay conditions: 309.15 K; 101.33 kPa; Crystal; Small sample (50 mg) DSC
± gives the expanded uncertainty stated by the source.
In this section we review reported molar heat capacity at constant pressure values for a set of compounds.
assay metric: molar heat capacity at constant pressure

INSERT INTO results (compound, assay_metric, measured_value) VALUES
  ('OC[C@@H](O)[C@@H](O)[C@H](O)[C@H](O)CO', 'molar heat capacity at constant pressure', '240.22 ± 39 J/K/mol'),
  ('OC[C@H](O)C(O)[C@@H](O)CO [L-(-)-arabitol]', 'molar heat capacity at constant pressure', '216.11 ± 43 J/K/mol'),
  ('OC[C@@H](O)[C@@H](O)CO', 'molar heat capacity at constant pressure', '171.87 ± 21 J/K/mol'),
  ('OC[C@@H](O)C(O)[C@H](O)CO', 'molar heat capacity at constant pressure', '210.24 ± 17 J/K/mol'),
  ('O[C@H]1[C@H](O)[C@@H](O)[C@H](O)[C@@H](O)[C@H]1O [cis-1,2,3,5-trans-4,6-cyclohexanehexol]', 'molar heat capacity at constant pressure', '227.45 ± 32 J/K/mol'),
  ('OC[C@@H](O)[C@H](O)[C@@H](O)CO', 'molar heat capacity at constant pressure', '218.75 ± 13 J/K/mol');

====

compounds and their reported molar heat capacity at constant pressure
# assay protocol: molar heat capacity at constant pressure
# assay conditions: 180 K; 101.33 kPa; Crystal; relaxation calorimetry
assay metric: molar heat capacity at constant pressure (J/K/mol)

INSERT INTO measurements (compound, measured_value) VALUES
  ('OC[C@@H](O)[C@H](O)[C@@H](O)CO [xylitol]', 130),
  ('OC[C@H](O)C(O)[C@@H](O)CO [L-(-)-arabitol]', 130.18),
  ('OC[C@@H](O)C(O)[C@H](O)CO [D-arabitol]', 128.94),
  ('OC[C@@H](O)[C@@H](O)CO [meso-1,2,3,4-butanetetrol]', 105.4),
  ('O[C@H]1[C@H](O)[C@@H](O)[C@H](O)[C@@H](O)[C@H]1O [cis-1,2,3,5-trans-4,6-cyclohexanehexol]', 131.43),
  ('OC[C@@H](O)[C@@H](O)[C@H](O)[C@H](O)CO [D-mannitol]', 146.27);

====

# assay protocol: molar heat capacity at constant pressure
# assay conditions: 15 K; 101.33 kPa; Crystal; relaxation calorimetry
assay metric: molar heat capacity at constant pressure (J/K/mol)

INSERT INTO measurements (compound, assay_metric, measured_value) VALUES
  ('O[C@H]1[C@H](O)[C@@H](O)[C@H](O)[C@@H](O)[C@H]1O [cis-1,2,3,5-trans-4,6-cyclohexanehexol]', 'molar heat capacity at constant pressure', 4.447),
  ('OC[C@H](O)C(O)[C@@H](O)CO [L-(-)-arabitol]', 'molar heat capacity at constant pressure', 3.316),
  ('OC[C@@H](O)C(O)[C@H](O)CO', 'molar heat capacity at constant pressure', 3.255),
  ('OC[C@@H](O)[C@@H](O)CO', 'molar heat capacity at constant pressure', 3.273),
  ('OC[C@@H](O)[C@@H](O)[C@H](O)[C@H](O)CO', 'molar heat capacity at constant pressure', 3.67),
  ('OC[C@@H](O)[C@H](O)[C@@H](O)CO', 'molar heat capacity at constant pressure', 3.243);
